Form field: inhibition at 0.1 µM (one value per entry).
Biological target: glycine receptors (Rattus norvegicus, UniProt P07727)
Construct: from tissue; host or cells: rat spinal cord / brainstem synaptic membranes (inferred from the cited method)
Sequence (P07727 29-457): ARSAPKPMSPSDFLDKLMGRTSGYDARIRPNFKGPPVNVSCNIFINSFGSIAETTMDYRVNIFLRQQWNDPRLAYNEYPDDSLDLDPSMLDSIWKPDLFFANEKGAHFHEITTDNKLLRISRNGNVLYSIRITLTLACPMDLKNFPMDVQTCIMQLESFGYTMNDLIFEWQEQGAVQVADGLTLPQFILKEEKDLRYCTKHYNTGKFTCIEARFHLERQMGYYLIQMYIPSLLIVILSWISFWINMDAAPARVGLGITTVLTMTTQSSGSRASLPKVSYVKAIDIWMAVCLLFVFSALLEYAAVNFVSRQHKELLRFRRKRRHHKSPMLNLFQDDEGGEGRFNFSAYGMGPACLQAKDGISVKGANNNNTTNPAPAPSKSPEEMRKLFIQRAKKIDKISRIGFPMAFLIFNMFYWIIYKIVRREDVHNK
Sequence (P20781 23-496 partner): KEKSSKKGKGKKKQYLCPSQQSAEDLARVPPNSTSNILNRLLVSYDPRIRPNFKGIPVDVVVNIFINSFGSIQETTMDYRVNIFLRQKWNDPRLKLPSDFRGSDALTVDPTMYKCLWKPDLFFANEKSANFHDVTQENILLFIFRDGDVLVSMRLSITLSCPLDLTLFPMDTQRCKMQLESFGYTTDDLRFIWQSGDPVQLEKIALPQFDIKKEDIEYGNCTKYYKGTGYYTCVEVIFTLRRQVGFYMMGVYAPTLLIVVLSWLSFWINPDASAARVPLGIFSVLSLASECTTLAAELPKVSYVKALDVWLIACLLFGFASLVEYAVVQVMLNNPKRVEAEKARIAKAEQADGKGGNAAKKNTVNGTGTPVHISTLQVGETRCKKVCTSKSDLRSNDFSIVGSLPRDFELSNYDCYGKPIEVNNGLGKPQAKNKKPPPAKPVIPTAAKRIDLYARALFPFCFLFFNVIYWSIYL
Assay: binding tests, affinity to glycine receptors (% displacement)
Conditions: 0.1 μM

compound | inhibition at 0.1 µM
COc1c(OCC2CO2)cc2c(c1OC)-c1ccc(SC)c(=O)cc1[C@@H](NC(C)=O)CC2 (stereo partly shown) [Compound I, 3-demethyl-3-glycidylthiocolchicine] | 40%
COc1c(OCC(O)CO)cc2c(c1OC)-c1ccc(SC)c(=O)cc1[C@@H](NC(C)=O)CC2 (stereo partly shown) [Compound II] | 35%
COc1c(O[C@@H]2O[C@H](CO)[C@@H](O)[C@H](O)[C@H]2O)cc2c(c1OC)-c1ccc(SC)c(=O)cc1[C@@H](NC(C)=O)CC2 [thiocolchicoside, 3-demethyl-thiocolchicine glucoside, reference compound] | 20%
COc1c(OCC(O)CN)cc2c(c1OC)-c1ccc(SC)c(=O)cc1[C@@H](NC(C)=O)CC2 (stereo partly shown) [Compound III] | 50%

====

Test: acute toxicity (DL50) in the mouse
Settings: in vivo, iv

compound | LD50 / mg/kg
COc1c(O[C@@H]2O[C@H](CO)[C@@H](O)[C@H](O)[C@H]2O)cc2c(c1OC)-c1ccc(SC)c(=O)cc1[C@@H](NC(C)=O)CC2 [thiocolchicoside, 3-demethyl-thiocolchicine glucoside, reference compound] | 7.5

====

Target: glycine receptors (Rattus norvegicus, UniProt P07727)
Construct: from tissue; host or cells: rat spinal cord / brainstem synaptic membranes (inferred from the cited method)
Assay: binding tests, affinity to glycine receptors (% displacement)
Conditions: 1 μM

compound | inhibition at 1 µM / %
COc1c(OCC(O)CN)cc2c(c1OC)-c1ccc(SC)c(=O)cc1[C@@H](NC(C)=O)CC2 (stereo partly shown) | 75
COc1c(OCC2CO2)cc2c(c1OC)-c1ccc(SC)c(=O)cc1[C@@H](NC(C)=O)CC2 (stereo partly shown) | 85
COc1c(OCC(O)CO)cc2c(c1OC)-c1ccc(SC)c(=O)cc1[C@@H](NC(C)=O)CC2 (stereo partly shown) | 65
COc1c(O[C@@H]2O[C@H](CO)[C@@H](O)[C@H](O)[C@H]2O)cc2c(c1OC)-c1ccc(SC)c(=O)cc1[C@@H](NC(C)=O)CC2 [thiocolchicoside, 3-demethyl-thiocolchicine glucoside, reference compound] | 70
